Test system: Escherichia coli
Test: Antibacterial activity against Escherichia coli by transcription and translation assay
Assay type: functional
pIC50: −log10 of the molar value.
property: pIC50

[a] CC(=O)NC[C@H]1CN(c2ccc3c(c2)CCC/C(=C\c2cccn2C)C3=O)C(=O)O1
[b] CC(=O)NC[C@H]1CN(c2ccc3c(c2)CCCCC3)C(=O)O1
[c] CC(=O)NC[C@H]1CN(c2cc3c(cc2F)C(=O)CCCC3)C(=O)O1
Sort (3 compounds) by pIC50: min first. Ranked list of labels, please, in the requested order.
c, b, a
(c: 4.05, b: 5.10, a: 5.80)

[1] CC(=O)NC[C@H]1CN(c2ccc3c(c2)CCC/C(=C\c2ccc(OCCCN(C)C)cc2)C3=O)C(=O)O1
[2] CC(=O)NC[C@H]1CN(c2ccc3c(c2)CCC/C(=C\c2ccccc2)C3=O)C(=O)O1
[3] CC(=O)NC[C@H]1CN(c2cnc3c(c2)CCCCC3=O)C(=O)O1
[4] CC(=O)NC[C@H]1CN(c2ccc(C(C)=O)cc2)C(=O)O1
Arrange these compounds by their pIC50, starting with the largest number. Ranked list of labels, please, in the requested order.
1, 2, 4, 3

Where these numbers come from: ChEMBL document CHEMBL1137280
